Target: KDR (Homo sapiens, UniProt P35968)
Sequence (P35968 20-1356): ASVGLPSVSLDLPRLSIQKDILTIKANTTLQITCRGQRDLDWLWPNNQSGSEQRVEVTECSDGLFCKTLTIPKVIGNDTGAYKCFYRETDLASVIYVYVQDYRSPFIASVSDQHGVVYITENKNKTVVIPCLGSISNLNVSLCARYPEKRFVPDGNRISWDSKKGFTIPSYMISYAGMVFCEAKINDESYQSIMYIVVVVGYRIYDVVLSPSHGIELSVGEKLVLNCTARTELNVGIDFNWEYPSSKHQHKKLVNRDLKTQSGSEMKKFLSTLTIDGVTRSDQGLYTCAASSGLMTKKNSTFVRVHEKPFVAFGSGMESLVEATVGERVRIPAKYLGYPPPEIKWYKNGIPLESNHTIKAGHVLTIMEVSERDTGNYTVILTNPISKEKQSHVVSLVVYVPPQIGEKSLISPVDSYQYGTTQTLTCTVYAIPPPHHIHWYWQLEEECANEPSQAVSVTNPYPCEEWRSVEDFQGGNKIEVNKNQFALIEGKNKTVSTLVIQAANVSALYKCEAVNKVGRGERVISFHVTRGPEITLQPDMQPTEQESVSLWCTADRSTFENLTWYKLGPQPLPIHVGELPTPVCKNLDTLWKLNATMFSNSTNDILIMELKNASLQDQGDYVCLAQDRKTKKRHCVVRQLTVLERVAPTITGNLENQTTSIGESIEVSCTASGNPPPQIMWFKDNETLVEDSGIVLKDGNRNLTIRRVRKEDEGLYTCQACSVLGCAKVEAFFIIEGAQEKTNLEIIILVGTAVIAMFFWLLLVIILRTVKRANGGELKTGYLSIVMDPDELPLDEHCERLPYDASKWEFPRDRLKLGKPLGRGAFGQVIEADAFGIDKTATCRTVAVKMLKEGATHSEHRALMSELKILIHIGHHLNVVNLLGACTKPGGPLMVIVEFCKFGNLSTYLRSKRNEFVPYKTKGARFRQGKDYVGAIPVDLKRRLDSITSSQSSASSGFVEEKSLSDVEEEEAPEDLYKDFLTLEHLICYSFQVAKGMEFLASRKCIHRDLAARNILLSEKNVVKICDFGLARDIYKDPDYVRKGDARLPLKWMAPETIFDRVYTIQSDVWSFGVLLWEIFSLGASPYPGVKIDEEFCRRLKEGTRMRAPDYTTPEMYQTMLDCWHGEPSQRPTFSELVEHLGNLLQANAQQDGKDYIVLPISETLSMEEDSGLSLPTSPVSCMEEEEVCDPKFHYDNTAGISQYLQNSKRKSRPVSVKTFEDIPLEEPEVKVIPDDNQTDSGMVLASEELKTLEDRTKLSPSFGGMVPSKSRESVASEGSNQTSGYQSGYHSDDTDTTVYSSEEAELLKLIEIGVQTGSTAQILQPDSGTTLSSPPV
pKi: −log10 of the molar value.
QUANTITY KIND: pKi

CN(C)C1CCC(c2cnc3[nH]cc(-c4oncc4-c4cccc(F)c4F)c3c2)CC1 (centres unmarked)	4.90 to 6.00
Fc1cccc(-c2cnoc2-c2n[nH]c3ncccc23)c1F	4.90 to 6.00
Oc1cnc2[nH]cc(-c3oncc3-c3cccc(F)c3F)c2c1	6.00 to 6.70
CN1CCCN(c2ccc(-c3cnc4[nH]cc(-c5nncn5-c5cccc(F)c5F)c4c3)cn2)CC1	6.00 to 6.70

// switching to the query compound
What reported pKi corresponds to "C[N+]1(C)CCN(c2ccc(-c3cnc4[nH]cc(-c5oncc5-c5cccc(F)c5F)c4c3)cc2)CC1" on KDR (Homo sapiens, UniProt P35968)?
> 6.70
